# IC50 listing for each entry below
# System: Giardia intestinalis
# protocol-text: Antigiardial activity against Giardia duodenalis WB (ATCC 30957) incubated for 3 days by fluorescence method
# Format: functional, organism-based
# setup-conditions: WB ATCC 30957, 72 h

entry-smiles	system-tested	output-unit	IC50
Cc1ncc([N+](=O)[O-])n1CCO	Giardia intestinalis	nM	500
CCCSc1ccc2nc(NC(=O)OC)[nH]c2c1	Giardia intestinalis	nM	55
CCS(=O)(=O)CCn1c([N+](=O)[O-])cnc1C	Giardia intestinalis	nM	300

---

Reported values of selectivity ratio at 48 h for individual entries
# protocol-text: Selectivity ratio of CC50 for human HeLa cells incubated for 2 days by alamarBlue reagent to IC50 for Giardia lamblia BRIS/87/HEPU/713 measured after 48 hrs by BacTiter-Glo cell viability assay
# Format: toxicity
# setup-conditions: read-out: Ratio CC50/IC50
measurement-name: selectivity ratio at 48 h

entry-smiles	measurement-name	test-result
CC(=O)c1ccc(-c2cn(CCn3c([N+](=O)[O-])cnc3/C=C/c3ccco3)nn2)cc1	selectivity ratio at 48 h	> 16800
O=C(CCCCCn1cc(C2CC2)nn1)Nc1ncc([N+](=O)[O-])s1	selectivity ratio at 48 h	> 500
CN(Cc1ccccc1)Cc1cn(CCCCCC(=O)Nc2ncc([N+](=O)[O-])s2)nn1	selectivity ratio at 48 h	> 500

---

# System: Giardia intestinalis
# protocol-text: Antigiardial activity against Giardia intestinalis IMSS-1090-1 incubated for 48 hrs followed by hemocytometric counting method
# Assay type: functional, organism-based
# setup-conditions: Giardia duodenalis, IMSS-1090-1, 48 h

entry-smiles	system-tested	IC50
CSc1nc2cc(Cl)c(C(=O)Nc3ncc([N+](=O)[O-])s3)cc2n1C	Giardia intestinalis	10 nM

---

# protocol-text: Selectivity ratio of CC50 for human HeLa cells incubated for 2 days by alamarBlue reagent to IC50 for Giardia lamblia BRIS/83/HEPU/106 measured after 48 hrs by BacTiter-Glo cell viability assay
# Type: toxicity
# setup-conditions: read-out: Ratio CC50/IC50

entry-smiles	selectivity ratio at 48 h
O=C(CCCCCn1cc(C2CC2)nn1)Nc1ncc([N+](=O)[O-])s1	> 27
CN(Cc1ccccc1)Cc1cn(CCCCCC(=O)Nc2ncc([N+](=O)[O-])s2)nn1	> 8

---

# protocol-text: Half-life of the compound
# Assay type: physicochemical
Please use Yes for half-life under 8 h and No for everything else, ties included.

compound	class-name
CCS(=O)(=O)CCn1c([N+](=O)[O-])cnc1C	No
CC(=O)Oc1ccccc1C(=O)Nc1ncc([N+](=O)[O-])s1 [NITAZOXANIDE]	Yes
Cc1ncc([N+](=O)[O-])n1CCO	Yes
COC(=O)Nc1nc2ccc(C(=O)c3ccccc3)cc2[nH]1	Yes

---

selectivity ratio at 48 h listing for selected molecules.
# protocol-text: Selectivity ratio of CC50 for human HeLa cells incubated for 2 days by alamarBlue reagent to IC50 for Giardia lamblia 713M3 measured after 48 hrs by BacTiter-Glo cell viability assay
# Format: toxicity
# setup-conditions: read-out: Ratio CC50/IC50

entry-smiles	selectivity ratio at 48 h
CN(Cc1ccccc1)Cc1cn(CCCCCC(=O)Nc2ncc([N+](=O)[O-])s2)nn1	> 8
O=C(CCCCCn1cc(C2CC2)nn1)Nc1ncc([N+](=O)[O-])s1	> 27

---

Listing of entries alongside the reported pIC50.
# Tested on: Giardia intestinalis
# protocol-text: Growth inhibition of Giardia duodenalis isolate 14-03/F7 measured after 24 hrs by resazurin based assay
# Type: functional, organism-based
# setup-conditions: isolate 14-03/F7, 24 h
pIC50: −log10 of the molar value.
measurement-name: pIC50

entry-smiles	system-tested	test-result
CCCCCCCCCCC[C@@H](C[C@@H]1OC(=O)[C@H]1CCCCCC)OC(=O)[C@H](CC(C)C)NC=O	Giardia intestinalis	5.55
Cc1ncc([N+](=O)[O-])n1CCO	Giardia intestinalis	5.21
